Assay: Protease stability in simulated intestinal fluids (FaSSIF) (Table 7)
Format: in vitro ADME
Conditions: fassif with pancreatin, 240 min, 37° C., read-out: Remaining percentage of peptide compound, FaSSIF 240 (min)
Numbered stars: 1 amine (or outer) side, 2 acyl side, 3 side chain; on linkers, the order of the positions; unused ones are H or OH. Bridge positions count the residues as written; N and C are the ends. Square brackets hold non-standard residues; d marks the D form. Peptide text beside a SMILES is read from it. * marks the point of attachment. Lys(Me,(CH2)4NMe(CH2)4CO) = CN(CCCCC(=O)[*:3])CCCCN(C)CCCC[C@H](N[*:1])C(=O)[*:2]; Trp(7-Me) = Cc1cccc2c(C[C@H](N)C(=O)O)c[nH]c12; Trp(1-Me) = Cn1cc(C[C@H](N)C(=O)O)c2ccccc21; αMeLys(Me2) = CN(C)CCCC[C@](C)(N)C(=O)O; 2Nal = N[C@@H](Cc1ccc2ccccc2c1)C(=O)O; 3Pal = N[C@@H](Cc1cccnc1)C(=O)O; AEEEA = NCCOCCOCCOCC(=O)O; Thp = NC1(C(=O)O)CCOCC1; Me2NCH2CH2 = CN(C)CC*; Aib = CC(C)(N)C(=O)O; Sar = CNCC(=O)O
Reported remaining at 4 h, 1 µM values for a set of compounds
Express the result in % but write the number alone.

Please review the entries below; each comes with its answer.
{"columns": ["compound", "remaining at 4 h, 1 µM, %"],
 "data": [
  ["CC(=O)NCCCC[C@@H]1NC(=O)[C@H](Cc2c[nH]c3c(C)cccc23)NC(=O)CCCCN(C)CCCCN(C)CCCC[C@@H](C(=O)N[C@@H](CC(N)=O)C(=O)N[C@@H](Cc2cccnc2)C(=O)N(C)CC(N)=O)NC(=O)[C@](C)(CCCCN(C)C)NC(=O)[C@H](Cc2ccc3ccccc3c2)NC(=O)[C@H](Cc2ccc(OCCN(C)C)cc2)NC(=O)C2(CCOCC2)NC1=O [compound 47] ([Trp(7-Me)]K(Ac)[Thp]Y(Me2NCH2CH2)[2Nal][αMeLys(Me2)][Lys(Me,(CH2)4NMe(CH2)4CO)]N[3Pal][Sar]-NH2; lactam N-7)", 91],
  ["CN(C)CCOc1ccc(C[C@@H]2NC(=O)C3(CCOCC3)NC(=O)[C@H](CCC(N)=O)NC(=O)[C@H](Cc3cn(C)c4ccccc34)NC(=O)CCCCN(C)CCCCN(C)CCCC[C@@H](C(=O)N[C@@H](CO)C(=O)N[C@@H](Cc3cccnc3)C(=O)N(C)CC(N)=O)NC(=O)C(C)(C)NC(=O)[C@H](Cc3ccc4ccccc4c3)NC2=O)cc1 [compound 40] ([Trp(1-Me)]Q[Thp]Y(Me2NCH2CH2)[2Nal][Aib][Lys(Me,(CH2)4NMe(CH2)4CO)]S[3Pal][Sar]-NH2; lactam N-7)", 92]
]}

// next entry
Request: Which remaining at 4 h, 1 µM value belongs to Cc1cccc2c(C[C@@H]3NC(=O)COCCOCCOCCNC(=O)CC[C@@H](C(=O)N[C@@H](CC(N)=O)C(=O)N[C@@H](Cc4cccnc4)C(=O)N(C)CC(N)=O)NC(=O)C(C)(C)NC(=O)[C@H](Cc4ccc5ccccc5c4)NC(=O)[C@H](Cc4ccc(OCCN(C)C)cc4)NC(=O)C4(CCOCC4)NC(=O)[C@H](CCC(N)=O)NC3=O)c[nH]c12 [compound 14] ([AEEEA][Trp(7-Me)]Q[Thp]Y(Me2NCH2CH2)[2Nal][Aib]EN[3Pal][Sar]-NH2; lactam N-8) ?
Response: 88
